# System: L-6 cells
# TEST_NAME: In vitro cytotoxicity with L-6 cells (Alamar Blue)
# Format: cell-based, rat
# SETUP_CONDITIONS: rat, 72 h
pIC50: −log10 of the molar value.
Known pIC50 of a selection of compounds
ASSAY_ENDPOINT: pIC50

• CC(C)(C)C(=O)N1CCN(c2ccccc2NC(=O)c2cccc(C(F)(F)F)c2Oc2ccccc2)CC1 = 3.72
• O=C(Nc1ccccc1)c1cccc(C(F)(F)F)c1Oc1ccc(F)cc1 = 3.69
• CC(C)(C)C(=O)N1CCN(c2ccc(NC(=O)c3cccc(C(F)(F)F)c3Oc3ccc(F)cc3)cc2)CC1 = 4.00
• CC(C)(C)C(=O)N1CCN(c2ccccc2NC(=O)c2cccc(C(F)(F)F)c2Oc2ccc(F)cc2)CC1 = 3.73
• CC(C)(C)C(=O)N1CCN(c2cccc(NC(=O)c3cccc(C(F)(F)F)c3Oc3ccc(F)cc3)c2)CC1 = 4.11
• CC(C)(C)OC(=O)N1CCN(c2ccc(NC(=O)c3cccc(C(F)(F)F)c3Oc3ccccc3)cc2)CC1 = 3.73
• NC(=O)N1CCN(c2ccccc2NC(=O)c2cccc(C(F)(F)F)c2Oc2ccc(F)cc2)CC1 = 4.45
• O=CN1CCN(c2ccccc2NC(=O)c2cccc(C(F)(F)F)c2Oc2ccc(F)cc2)CC1 = 4.50
